interaction score reference
Assay system: T1, 4H3112-bA
T1 chain: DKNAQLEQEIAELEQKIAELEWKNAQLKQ
Experimental details: two-hybrid library CCNG1;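 note: natural log of median RNA to DNA barcode read ratio; higher means stronger binding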
Kindly provide the number alone.

The binder listed as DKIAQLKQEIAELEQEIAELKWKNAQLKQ [4H2576-bA] shows interaction score equal to 0.265

interaction score reading for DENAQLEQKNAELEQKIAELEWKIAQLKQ [4H1446-bA] : 0.505

According to the records, this binder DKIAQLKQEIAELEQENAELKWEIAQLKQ [4H2586-bA] displays interaction score of -1

Entry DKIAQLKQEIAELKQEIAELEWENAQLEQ [4H2627-bA] — recorded interaction score = 0.764

Query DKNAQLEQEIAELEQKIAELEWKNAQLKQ [4H3112-bA] yields interaction score of 1.17

interaction score in this record for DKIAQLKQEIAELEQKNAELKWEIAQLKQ [4H2618-bA] : -0.804

interaction score for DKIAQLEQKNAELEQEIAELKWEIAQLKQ [4H2442-bA] is -0.0125

Value source: paper PMC10397247
